This collection of values is drawn from ChEMBL document CHEMBL3352814.

# target_system: Heat shock protein HSP90 (Homo sapiens) (UniProt P07900+P08238)
# protocol_text: Inhibition of HSP90 in human MCF7 cells assessed as induction of Her2 protein degradation at 0.5 to 5 times antiproliferative IC50 level after 24 hrs by Western blotting method
# Assay type: cell-based
Calls of active or inactive are those of the source. The calls are words filed in the database; no cut-off is given here.
Return exactly one item of active, inactive

Called result for CN1CCC(Oc2ccc(-c3ccc(NC(=O)c4ccc5ccccc5c4)cc3)cc2)CC1
active

Follow-up item: CN1CCC(Oc2ccc(-c3ccc(NC(=O)c4cccc(-c5ccccc5)c4)cc3)cc2)CC1
active

How about this compound: CN1CCC(Oc2ccc(-c3ccc(NC(=O)c4cc5ccccc5[nH]4)cc3)cc2)CC1
active

Note, next up: CN1CCC(Oc2ccc(-c3ccc(NC(=O)c4cccc5ccccc45)cc3)cc2)CC1
active

Next:
So what was the verdict on CN1CCC(Oc2ccc(-c3ccc(NC(=O)c4ccc(Br)cc4)cc3)cc2)CC1 in this test?
inactive

Can you handle CN1CCC(Oc2ccc(-c3ccc(NC(=O)c4ccc(Cl)cc4)cc3)cc2)CC1 next?
inactive

Also need COc1ccc(C(=O)Nc2ccc(-c3ccc(OC4CCN(C)CC4)cc3)cc2)cc1 , thanks.
active

Note, next up: CN1CCC(Oc2ccc(-c3ccc(NC(=O)c4ccc(I)cc4)cc3)cc2)CC1
inactive
